Assay: pH profiling solubility experiments
Type: physicochemical
Conditions: pH 7.5 media, 25 °C, pH 7.5, aqueous buffer, thermodynamic from solid, media pH 7.5, 25° C.
Property name: solubility at 24 h (mg/mL)

• C[C@@H]1CN(Cc2ncccn2)C[C@H]1c1cn2c(C3CCOCC3)ncc2c(=O)[nH]1 [MH2] = 58

* * *

Experiment: Solubility assessment of MH1 in solvents (HPLC of liquors, XRPD of isolated solids)
Format: physicochemical
Details: IPrOAc with 0.5% water, organic solvent or mixture, thermodynamic from solid; IPrOAc:0.5% water, 5° C., 24 hours
Property name: solubility at 24 h (µg/mL)

- C[C@@H]1CN(Cc2ncccn2)C[C@H]1c1cn2c(C3CCOCC3)ncc2c(=O)[nH]1: 3800

These measurements were taken from patent US12466832B2.
